# target-or-test-system: CXCR7 (Homo sapiens, UniProt P25106)
# Construct: host or cells: CHO (PathHunter CHO-CXCR7 β-arrestin cells)
# Sequence (P25106 whole entry): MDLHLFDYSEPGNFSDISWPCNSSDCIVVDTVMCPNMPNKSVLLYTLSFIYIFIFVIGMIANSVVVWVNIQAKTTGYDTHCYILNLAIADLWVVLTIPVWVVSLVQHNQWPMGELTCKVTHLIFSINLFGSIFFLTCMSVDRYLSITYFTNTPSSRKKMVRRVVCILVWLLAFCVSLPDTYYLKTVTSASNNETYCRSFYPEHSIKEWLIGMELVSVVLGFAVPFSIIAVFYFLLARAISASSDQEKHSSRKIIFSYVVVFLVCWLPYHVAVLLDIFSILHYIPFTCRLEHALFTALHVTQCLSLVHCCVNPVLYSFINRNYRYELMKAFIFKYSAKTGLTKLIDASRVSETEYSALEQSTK
# assay-details: CXCR7 β-arrestin recruitment assay (PathHunter CHO-CXCR7, agonistic assay)
# Type: cell-based
# experimental-parameters: CHO CXCR7 β-arrestin cells, agonistic assay, 90 min at 37° C., chemiluminescence; read-out: β-Arrestin EC50
Square brackets hold non-standard residues; d marks the D form. Peptide text beside a SMILES is read from it. 2Nal = N[C@@H](Cc1ccc2ccccc2c1)C(=O)O; Tic = O=C(O)[C@@H]1Cc2ccccc2CN1
reported-endpoint: EC50 (nM)
Please reply with the bare figure in nM and do not write the unit itself.

Recorded results for 2 compounds are shown here.
>  <compound>
N=C(N)NCCC[C@@H]1NC(=O)[C@H](Cc2c[nH]c3ccccc23)NC(=O)[C@@H](Cc2c[nH]c3ccccc23)NC(=O)[C@H](Cc2c[nH]c3ccccc23)NC(=O)[C@@H]2Cc3ccccc3CN2C(=O)[C@H]2CCCN2C1=O [Ex. 10, cyclo(-Trp-^DTrp-Trp-Arg-^DPro-Tic-)] (cyclo(R[dP][Tic]W[dW]W))

>  <target-or-test-system>
CXCR7 (Homo sapiens, UniProt P25106)

>  <EC50 [nM]>
64.9

$$$$
>  <compound>
CC[C@H](C)[C@@H]1NC(=O)[C@@H]2Cc3ccccc3CN2C(=O)[C@H]2CCCN2C(=O)[C@H](CCCNC(=N)N)NC(=O)[C@H](Cc2c[nH]cn2)NC(=O)[C@@H](Cc2c[nH]c3ccccc23)NC1=O [compound 34, cyclo(-Ile-^DTrp-His-Arg-^DPro-Tic-)] (cyclo(HR[dP][Tic]I[dW]))

>  <target-or-test-system>
CXCR7 (Homo sapiens, UniProt P25106)

>  <EC50 [nM]>
317

$$$$

# value of EC50, CXCR7 (Homo sapiens, UniProt P25106), item N=C(N)NCCC[C@@H]1NC(=O)[C@H](Cc2c[nH]c3ccccc23)NC(=O)[C@@H](Cc2ccccc2)NC(=O)[C@H](Cc2ccc3ccccc3c2)NC(=O)[C@@H]2Cc3ccccc3CN2C(=O)[C@H]2CCCN2C1=O [compound 8, cyclo(-2Nal-^DPhe-Trp-Arg-^DPro-Tic-)] (cyclo([2Nal][dF]WR[dP][Tic])) = 8.9
